Target: T1, TerR35-138 (Aspergillus terreus SBUG844, UniProt Q0D1P5 35-138)
T1 sequence: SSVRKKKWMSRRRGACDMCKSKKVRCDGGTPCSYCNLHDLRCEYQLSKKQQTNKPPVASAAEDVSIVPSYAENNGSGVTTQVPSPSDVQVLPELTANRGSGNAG
Assay: SPR; molar ratio 1.87; SPR (Biacore 2000, SA-coated CM3 chip): 10 mM HEPES pH 7.4, 150 mM NaCl, 0.005% P20, 5 mM beta-mercaptoethanol, 1 uM ZnCl2, 25 C; protein 12.5-6400 nM; 1:1 model with mass transport
Conditions: protein: recombinant; (pET-29a; theoretical mass 11.35 kDa); label: biotin on one strand; 18 bp duplex
READOUT NAME: pKd
// field semantics: pKd = negative decimal log of concentration (mol/L)

Which pKd is reported for this binder? BS5 (dsDNA) DNA 1: GGGGCGGCTCCTCGGTAC DNA 2: GTACCGAGGAGCCGCCCC 5.82

Where do the numbers come from? From paper PMC4360782.
